B1: HDV Ribozyme (parent)
chain: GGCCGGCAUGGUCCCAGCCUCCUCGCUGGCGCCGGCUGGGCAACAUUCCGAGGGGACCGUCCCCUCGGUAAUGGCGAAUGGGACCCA

Variants of: B1
Experiment: self-cleavage, relative activity (ratio to wild type); higher = more cleavage; co-transcriptional
quantityKind: self-cleavage

• GGCCGGCAUGGUCCCAGCCUCCUCGAUGGCGCCGACUGGGCAACAUUCCGAGGGGACCGUCCCCUCGGUAAUGGCGAAUGGGACCCA [C26A G35A] = 0.633
• GGCCGGCAUGGUCCCAGCCUCCUCGCUGGCGCCGGCUGGGCAACAUUCCGAGGGGACCGUCCCCUUGGUAAUGGCGAAUGGCACCCA [C66U G82C] = 0.268
• GGCCGGCAUGGUCCCAGCCUCCGCGCUGGCGCCGGCAGGGCAACAUUCCGAGGGGACCGUCCCCUCGGUAAUGGCGAAUGGGACCCA [U23G U37A] = 0.0678
• GGCCGGCAUGGUCCCAGCAUCCUCGCUGGCGCCGCCUGGGCAACAUUCCGAGGGGACCGUCCCCUCGGUAAUGGCGAAUGGGACCCA [C19A G35C] = 0.125
• GGCCGUCAUGGUCCCAGCCUCCUCGCUGGCGCCGGCUGGGCAACAUUCCGAGGGGACCUUCCCCUCGGUAAUGGCGAAUGGGACCCA [G6U G59U] = 0.69
• GGCCGGCUUGGUCUCAGCCUCCUCGCUGGCGCCGGCUGGGCAACAUUCCGAGGGGACCGUCCCCUCGGUAAUGGCGAAUGGGACCCA [A8U C14U] = 0.864
• GGCCGGCAUGGUCCCAGCCUCCUGGCUGUCGCCGGCUGGGCAACAUUCCGAGGGGACCGUCCCCUCGGUAAUGGCGAAUGGGACCCA [C24G G29U] = 0.0692
• GGCCGGCAUGGUCCCAGCCUCCUCGCUGGCGCCGGCUGCGCAACAUUCCGAGGGGCCCGUCCCCUCGGUAAUGGCGAAUGGGACCCA [G39C A56C] = 0.18
• GGCCGGCAUGGUCCCAGCCUCCUCGCUGGCGCCGGCUGGGCAACAUUCCGAGGGGACCGUCCCCUCGGUAACGGCGAAUGAGACCCA [U72C G81A] = 0.356
• GGCCGGUAUGGUCCCAGCCUCCUCGCUGGCGCCGGCUGGGCAACAUUCCGAGGGGACCGUCCCCUCGGUAAUGGCGAAUGGGAUCCA [C7U C84U] = 0.686
• GGCCGGCAUGGUCCCAGCCUCCUCGCUGGCGCCGGCUGGGCCACAUUCCGAGGGGACCGUCCACUCGGUAAUGGCGAAUGGGACCCA [A42C C63A] = 0.277
• GGCCGGCUUGGUCCCAGCCUCCUUGCUGGCGCCGGCUGGGCAACAUUCCGAGGGGACCGUCCCCUCGGUAAUGGCGAAUGGGACCCA [A8U C24U] = 0.787
• GGCCGGCAUGGUCCCAGCCUCCUCGCUGGUGCCGGCAGGGCAACAUUCCGAGGGGACCGUCCCCUCGGUAAUGGCGAAUGGGACCCA [C30U U37A] = 0.256
• GGCCGGCAUGGUCUCAGCCUCCUCGCUGGCGCCGGCUGGGCAACAUUCCGAGGGGACCGUCCCCUCGGUGAUGGCGAAUGGGACCCA [C14U A70G] = 0.931
• GGCCGGCAUGGUCCCAGCCCCCUCGCUGGCGCCGGCUGGGCAACAUUCCGAGGGGAUCGUCCCCUCGGUAAUGGCGAAUGGGACCCA [U20C C57U] = 0.306
• GACCGGCAUGGUCCCAGCCUCCUCGCUGGCGCCGGCUGGGCAACAUUCCGAGGGGACCGUCCCCUCGGUAAUGGCGAAUGGGACCCG [G2A A87G] = 0.145
• GGCCGGCAUGGUCCCAGCCUCCUCGCUGGCGCCGGCUGGGCAACAUUCCGAGGGGUCCGUCCUCUCGGUAAUGGCGAAUGGGACCCA [A56U C63U] = 0.799
• GGCCGGCAUGGUCCCAGCCUCCUCGCUGGCGCCGGCUGGGCAACAUUCCGAGGGGACCGUCCCGUCGGAAAUGGCGAAUGGGACCCA [C64G U69A] = 1.01
• GGCCGGCAUGGUCCCAGCCUCCUCGCUGGCGCCCGCUCGGCAACAUUCCGAGGGGACCGUCCCCUCGGUAAUGGCGAAUGGGACCCA [G34C G38C] = 0.122
• GGCCGGCAUGGUCCCAGCCUCCUCGCUUGCGCCGGCUGGGCAACAUUCCGAGGGGUCCGUCCCCUCGGUAAUGGCGAAUGGGACCCA [G28U A56U] = 0.0941
• GGCCGGCAUGAUCCCAGCCUCCUCCCUGGCGCCGGCUGGGCAACAUUCCGAGGGGACCGUCCCCUCGGUAAUGGCGAAUGGGACCCA [G11A G25C] = 0.0906
• GGCCGGCGUGGUCCCAGCCUCCUGGCUGGCGCCGGCUGGGCAACAUUCCGAGGGGACCGUCCCCUCGGUAAUGGCGAAUGGGACCCA [A8G C24G] = 0.0639
• CGCCGGCAUGGUCCCAGCCUCCUCGCUGGCGCCGGCUGGGCAACAUUCCGAGGGGUCCGUCCCCUCGGUAAUGGCGAAUGGGACCCA [G1C A56U] = 0.17
• GGCCGGCAUGGGCCCAGCCUCCUCGCUGGCGCCGGCUGGGCAACAUCCCGAGGGGACCGUCCCCUCGGUAAUGGCGAAUGGGACCCA [U12G U47C] = 0.437
• GGCCGGCAUGGUCCCAGCCUCCUCGUUGGCGCCGGCUGGGCAACAUUCCGAGGGGACCGUCCCCUCGGUAAUGGCGAAUGGUACCCA [C26U G82U] = 0.769
• GGCCGGCAUGGUCCCAGCCUCCUCGCUGGCGCCGGCCGGGCAACAUUACGAGGGGACCGUCCCCUCGGUAAUGGCGAAUGGGACCCA [U37C C48A] = 1.13
• GGCCGGCAUGGUCCCAGCCUCCUCGCUGGCGCCGGCUGGGCAAGAUUCCGAGGGGACCGUCCCCUCGGUCAUGGCGAAUGGGACCCA [C44G A70C] = 0.831
• GGCCGGCAUGGUUCCAGCCUCCACGCUGGCGCCGGCUGGGCAACAUUCCGAGGGGACCGUCCCCUCGGUAAUGGCGAAUGGGACCCA [C13U U23A] = 0.571
• GGCCGGCAUGGUCCCAGCCUCCUCGCCGGCGCCGGCUGGGCAACAUUCCGAGGGGACCGUCCCCUCGGUAAUGGCGAAGGGGACCCA [U27C U79G] = 0.32
• GGGCGGCAUGGUCCCAGCCUCUUCGCUGGCGCCGGCUGGGCAACAUUCCGAGGGGACCGUCCCCUCGGUAAUGGCGAAUGGGACCCA [C3G C22U] = 0.179
• GGCCGGCAUGGUCCCAGCCUCCUCGCUGGUGCCGGCUGGGCAACAUUCCGAGGGGACCGUCCCCCCGGUAAUGGCGAAUGGGACCCA [C30U U65C] = 0.78
• GGCCGGCAUGGUCCCAGCCUCCUCGCUGGCGCCGGCUGGGCAACAAUCCGAGGGGACCGUCCCCUCGGUAAUGGCGGAUGGGACCCA [U46A A77G] = 0.646
